The binders listed here are annotated with their FACS Geometric Mean Fluorescence.
Target: T1, cynomolgus KDR (cynomolgus monkey, UniProt A0A2K5VE63 20-1356)
T1 construct: whole, on cells; also called Cyno KDR
T1 sequence (A0A2K5VE63 entry or part of it): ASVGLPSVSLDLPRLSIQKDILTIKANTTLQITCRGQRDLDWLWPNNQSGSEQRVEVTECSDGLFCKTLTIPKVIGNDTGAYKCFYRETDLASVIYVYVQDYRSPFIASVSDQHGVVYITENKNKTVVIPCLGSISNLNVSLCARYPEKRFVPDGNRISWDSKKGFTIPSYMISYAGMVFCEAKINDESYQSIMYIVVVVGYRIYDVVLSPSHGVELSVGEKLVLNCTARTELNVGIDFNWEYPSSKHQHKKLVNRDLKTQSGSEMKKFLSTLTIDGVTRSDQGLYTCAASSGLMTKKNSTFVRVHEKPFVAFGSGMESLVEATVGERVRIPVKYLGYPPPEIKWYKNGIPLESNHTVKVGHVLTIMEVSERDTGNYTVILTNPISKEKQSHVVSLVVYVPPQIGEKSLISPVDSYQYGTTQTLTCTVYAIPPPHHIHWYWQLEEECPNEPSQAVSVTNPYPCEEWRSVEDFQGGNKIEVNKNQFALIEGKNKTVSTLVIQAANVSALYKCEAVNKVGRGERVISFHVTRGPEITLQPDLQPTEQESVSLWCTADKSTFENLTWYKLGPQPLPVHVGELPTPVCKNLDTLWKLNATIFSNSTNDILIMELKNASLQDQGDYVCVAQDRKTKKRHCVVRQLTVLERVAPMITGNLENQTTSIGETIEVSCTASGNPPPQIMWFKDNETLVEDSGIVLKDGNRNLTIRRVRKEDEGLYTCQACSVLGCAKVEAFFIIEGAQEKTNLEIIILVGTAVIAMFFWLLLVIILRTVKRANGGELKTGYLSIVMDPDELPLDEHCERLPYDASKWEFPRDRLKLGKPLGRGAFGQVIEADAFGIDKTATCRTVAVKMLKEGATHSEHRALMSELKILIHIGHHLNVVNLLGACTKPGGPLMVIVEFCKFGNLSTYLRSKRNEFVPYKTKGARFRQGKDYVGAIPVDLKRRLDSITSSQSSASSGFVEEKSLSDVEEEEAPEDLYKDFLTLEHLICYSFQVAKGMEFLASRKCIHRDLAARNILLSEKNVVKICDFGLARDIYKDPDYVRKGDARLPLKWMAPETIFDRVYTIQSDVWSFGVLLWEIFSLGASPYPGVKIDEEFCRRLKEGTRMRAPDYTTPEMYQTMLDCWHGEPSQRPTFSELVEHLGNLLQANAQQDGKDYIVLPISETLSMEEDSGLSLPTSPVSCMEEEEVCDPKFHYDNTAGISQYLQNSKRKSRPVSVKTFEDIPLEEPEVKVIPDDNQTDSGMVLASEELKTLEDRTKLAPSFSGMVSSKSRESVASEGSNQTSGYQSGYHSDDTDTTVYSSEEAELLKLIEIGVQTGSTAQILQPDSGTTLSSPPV
Assay: FACS on Cyno KDR/293T transfectants, antibody 5 ug/mL

binder: 32F4 (antibody, V domains shown, Fully human monoclonal antibody from a XenoMouse hybridoma (IgG2 or IgG4 strain), purified) VH: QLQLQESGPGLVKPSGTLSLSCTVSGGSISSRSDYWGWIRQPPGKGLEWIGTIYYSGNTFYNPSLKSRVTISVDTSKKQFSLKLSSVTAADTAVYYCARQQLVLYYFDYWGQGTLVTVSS VL: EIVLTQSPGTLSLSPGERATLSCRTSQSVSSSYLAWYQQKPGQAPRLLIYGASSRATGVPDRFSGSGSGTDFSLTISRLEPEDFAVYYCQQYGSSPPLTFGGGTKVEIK
FACS Geometric Mean Fluorescence: 105

binder: 31E11 (antibody, V domains shown, Fully human monoclonal antibody from a XenoMouse hybridoma (IgG2 or IgG4 strain), purified) VH: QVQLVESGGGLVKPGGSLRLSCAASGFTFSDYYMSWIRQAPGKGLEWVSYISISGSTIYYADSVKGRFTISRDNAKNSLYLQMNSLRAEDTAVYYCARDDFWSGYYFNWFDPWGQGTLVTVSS VL: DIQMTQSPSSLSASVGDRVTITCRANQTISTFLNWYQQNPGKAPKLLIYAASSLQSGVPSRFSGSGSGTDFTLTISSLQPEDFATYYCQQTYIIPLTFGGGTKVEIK
FACS Geometric Mean Fluorescence: 99.5

binder: 24B3 (antibody, V domains shown, Fully human monoclonal antibody from a XenoMouse hybridoma (IgG2 or IgG4 strain), purified) VH: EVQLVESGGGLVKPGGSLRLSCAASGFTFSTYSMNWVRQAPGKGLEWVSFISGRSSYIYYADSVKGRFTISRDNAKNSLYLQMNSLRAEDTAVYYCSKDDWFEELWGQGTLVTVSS VL: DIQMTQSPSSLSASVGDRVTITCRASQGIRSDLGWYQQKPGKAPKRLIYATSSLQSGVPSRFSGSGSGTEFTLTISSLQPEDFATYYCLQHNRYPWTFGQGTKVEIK
FACS Geometric Mean Fluorescence: 68.4
